# targetSystem: human μ opiate receptor (Homo sapiens)
# Construct: purchased PerkinElmer Life Sciences, Zaventem, Belgium RB-HOM; host or cells: CHO-K1 cells (membrane preparation)
# Sequence (P35372 whole entry): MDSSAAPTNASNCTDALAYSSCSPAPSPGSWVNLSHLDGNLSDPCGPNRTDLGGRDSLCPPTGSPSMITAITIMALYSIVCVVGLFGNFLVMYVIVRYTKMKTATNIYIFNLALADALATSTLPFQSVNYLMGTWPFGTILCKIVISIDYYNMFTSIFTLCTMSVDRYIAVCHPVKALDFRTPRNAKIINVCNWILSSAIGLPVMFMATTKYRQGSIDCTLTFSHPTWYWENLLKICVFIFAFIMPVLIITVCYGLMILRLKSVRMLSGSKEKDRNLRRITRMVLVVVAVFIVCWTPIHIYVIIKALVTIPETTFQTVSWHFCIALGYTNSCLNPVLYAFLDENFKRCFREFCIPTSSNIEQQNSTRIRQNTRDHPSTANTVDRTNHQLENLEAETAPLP
# assayOverview: Affinity for the human μ opiate receptor ([3H]-naloxone displacement, CHO-K1 receptor membrane preparation, SPA)
# Format: binding
# testConditions: test concentration of 1 μM
This listing pairs molecules with measured μ (binding on the μ opioid receptor, % inhibition).
propertyLabel: μ (binding on the μ opioid receptor, % inhibition)

molecule	experimentalResult
CN(C)C(c1ccc(F)cc1)C1CCC(CNC(=O)COCCN(C)S(=O)(=O)c2ccc(Cl)cc2Cl)CC1 (stereo not shown) [Example 249]	70%
COc1cc(C)c(S(=O)(=O)N2CCCC(OCC(=O)NCC3CCC(C(CCc4ccccc4)N(C)C)CC3)C2)c(C)c1C (stereo not shown) [Example 551]	35%
COc1ccc(S(=O)(=O)N2CCC(OCC(=O)NCC3CCC(C(c4ccc(F)cc4)N(C)C)CC3)C2)cc1OC (stereo not shown) [Example 497]	37%
COc1ccc(S(=O)(=O)N2CCCCC2CCOCC(=O)NCC2CCC(C(c3ccc(F)cc3)N(C)C)CC2)cc1 (stereo not shown) [Example 350]	61%
COc1cc(C)c(S(=O)(=O)N2CCC(OCC(=O)NCCC3CCC(C(c4ccc(Cl)cc4)N(C)C)CC3)C2)c(C)c1C (stereo not shown) [Example 412]	50%
COc1ccc(S(=O)(=O)N2CCCCC2COCC(=O)NC2CCC(C(c3cccc(F)c3)N(C)C)CC2)cc1OC (stereo not shown) [Example 352]	65%
CN(C)C(c1cccc(F)c1)C1CCC(NC(=O)COC2CCCN(S(=O)(=O)c3ccccc3)C2)CC1 (stereo not shown) [Example 277]	68%
